- assay name: reversal of MRP1-mediated doxorubicin resistance, pilot screen, H69AR cells, doxorubicin co-treatment (AID 601)
- experimental setup: H69AR cells, CellTiter-Glo, 72 h; compound alone cytotoxicity; at 10 µM
# label = Condition met if viability < 90% else Condition not met

Prompt: Regarding OC(CCN1CCOCC1)(c1ccc(Cl)cc1)C1CCCCC1 (stereo unspecified) , kindly confirm whether its viability is beneath 90%.
Response: Condition met

Prompt: API: query returns whether the compound falls strictly under 90% in viability. Query: CCOC(=O)CNC(=O)CSc1ncnc2c1cnn2Cc1ccccc1
Response: Condition not met

Prompt: Just wondering, is viability of CCOC(=O)C(CC)Sc1nc2c(c(=O)[nH]c(=O)n2C)n1C/C=C(/C)Cl (stereo unspecified) below 90%?
Response: Condition met

Prompt: A record lists COc1ccc(Cc2nc(-c3ccc(NC(=O)c4cccnc4)cc3)no2)cc1 . Is its viability below 90%?
Response: Condition met

Prompt: Just wondering, is viability of COc1ccccc1N1CCN(C(=O)C2CCCO2)CC1 (stereo unspecified) below 90%?
Response: Condition not met

Prompt: Regarding CCSc1nnc(NC(=O)C(CC)(C(F)(F)F)C(F)(F)F)s1 , kindly confirm whether its viability is beneath 90%.
Response: Condition met

Prompt: Just wondering, is viability of COc1ccc(CCn2c(=N)c(C#N)cc3c(=O)n4ccccc4nc32)cc1 below 90%?
Response: Condition met

Prompt: Below 90% on viability? Entry CCS(=O)(=O)NCCc1cc2c(OC)ccc(OC)c2[nH]c1=O
Response: Condition not met
